Experiment: clinical
Details: female, human, plasma, po, 7.5 mg, t1/2, mean (% CV), Day 14, 7.5 mg once daily oral, Black women
reportedProperty: half-life (h)
Kindly provide the numeric value in h only, without the unit symbol.

Q) Tell me half-life reported for Clc1ccc2c(c1)CCc1cccnc1C2=C1CCNCC1
A) 35.4
